Data origin: patent US9315475B2

- SYSTEM TESTED: wildtype HIV-1 protease (Human immunodeficiency virus type 1 group M subtype B, UniProt P04585)
- Construct: the wildtype HIV-1 protease (which was expressed in Escherichia coli); made in house; host or cells: Escherichia coli
- METHOD DESCRIPTION: Assay for inhibition of microbial expressed HIV protease (Pepcleav)
- Format: biochemical
- MEASUREMENT CONTEXT: wild type HIV-1 protease expressed in E. coli, peptide substrate, pH 5.5; mean of at least two independent experiments; read-out: Pepcleav
METRIC: pIC50
Please keep in mind that pIC50 is minus log10 of the molar concentration; only the number is needed.

Sample answers from the record:
[
  {
    "COMPOUND": "N[C@H](C(=O)Nc1cncc(F)c1CC[C@@H]1CNC(COC(=O)NCC(F)(F)F)CO1)[C@@H](c1ccc(F)cc1)c1cccc(Cl)c1 (stereo in doubt)",
    "pIC50": 8.77
  },
  {
    "COMPOUND": "COC(=O)N[C@H](C(=O)Nc1cccc(F)c1CC[C@@H]1CN[C@H](COC(=O)NCC(F)(F)F)CO1)[C@@H](c1ccc(F)cc1)C1CCOCC1",
    "pIC50": 7.17
  },
  {
    "COMPOUND": "O=C(C[C@@H](c1ccc(F)cc1)c1cc(F)ccc1F)Nc1cncc(F)c1CC[C@@H]1CN[C@H](COC(=O)NCC(F)(F)F)CO1",
    "pIC50": 8.85
  },
  {
    "COMPOUND": "COC(=O)N[C@H](C(=O)Nc1ccccc1CC[C@@H]1CN[C@H](CNS(=O)(=O)c2ccc3cnnn3c2)CO1)C(c1ccccc1)c1ccccc1",
    "pIC50": 7.68
  },
  {
    "COMPOUND": "N[C@H](C(=O)Nc1cncc(F)c1CC[C@@H]1CN[C@H](COC(=O)NCC2CNC(=O)O2)CO1)C(c1ccc(F)cc1)c1ccc(F)cc1 (stereo partly drawn)",
    "pIC50": 7.41
  }
]

Field pIC50 (entry `COC(=O)N[C@H](C(=O)Nc1ccccc1CC[C@@H]1CN[C@H](CCc2ccccc2NC(=O)CCc2ccccc2)CO1)C(c1ccccc1)c1ccccc1` ) reads 8.89

Field pIC50 (entry COC(=O)N[C@H](C(=O)Nc1ccccc1CC[C@@H]1CN[C@H](C(=O)NC2CCOC2)CO1)C(c1ccccc1)c1ccccc1 (stereo partly drawn) ) reads 7.60

---

- SYSTEM TESTED: wildtype HIV-1 protease (Human immunodeficiency virus type 1 group M subtype B, UniProt P04585)
- Construct: the wildtype HIV-1 protease (which was expressed in Escherichia coli); made in house; host or cells: Escherichia coli
- METHOD DESCRIPTION: Assay for inhibition of microbial expressed HIV protease (Pepcleav)
- Format: biochemical
- MEASUREMENT CONTEXT: wild type HIV-1 protease expressed in E. coli, peptide substrate, pH 5.5; mean of at least two independent experiments; read-out: Pepcleav
Response field label: string, one of met (IC50 strictly below 50 nM) or not met.

Could you please tell me whether IC50 recorded for COC(=O)N[C@H](C(=O)Nc1ccccc1CC[C@@H]1CN[C@H](C(=O)NCc2ccccc2)CO1)C(c1ccccc1)c1ccccc1 [Example 2] is less than 50 nM?
met

Could you please tell me whether IC50 recorded for COC(=O)N[C@H](C(=O)Nc1cncc(F)c1CC[C@@H]1CN[C@H](COC(=O)NCC(F)(F)F)CO1)[C@H](c1ccc(F)cc1)c1ccc(OC(F)(F)F)cc1 [Example 283] is less than 50 nM?
met

Could you please tell me whether IC50 recorded for COC(=O)N[C@H](C(=O)Nc1cncc(F)c1CC[C@@H]1CN[C@H](COC(=O)NCC(F)(F)F)CO1)[C@H](c1ccccc1)c1ccc(Cl)cc1 [Example 107] is less than 50 nM?
met

Could you please tell me whether IC50 recorded for COC(=O)N[C@H](C(=O)Nc1cncc(F)c1CC[C@@H]1CN[C@H](COC(=O)NCC(F)(F)F)CO1)[C@H](c1ccc(F)cc1)c1ccc(C(F)(F)F)cc1 [Example 286] is less than 50 nM?
met

Could you please tell me whether IC50 recorded for COC(=O)N[C@H](C(=O)Nc1cccc(F)c1CC[C@@H]1CN[C@H](COC(=O)NCC(F)(F)F)CO1)[C@@H](c1ccc(F)cc1)c1cccc(F)c1 [Example 287] is less than 50 nM?
met

Could you please tell me whether IC50 recorded for COC(=O)N[C@H](C(=O)Nc1ccccc1CC[C@@H]1CN[C@H](COC(=O)NCC2CC2)CO1)C(c1ccccc1)c1ccccc1 [Example 22] is less than 50 nM?
not met

Could you please tell me whether IC50 recorded for COC(=O)N[C@H](C(=O)Nc1ccccc1CC[C@@H]1CN[C@H](CNC(=O)c2cc3ncccn3n2)CO1)C(c1ccccc1)c1ccccc1 [Example 59] is less than 50 nM?
not met

---

- SYSTEM TESTED: wildtype HIV-1 protease (Human immunodeficiency virus type 1 group M subtype B)
- Construct: the wildtype HIV-1 protease (which was expressed in Escherichia coli); made in house; host or cells: Escherichia coli
- METHOD DESCRIPTION: Assay for inhibition of microbial expressed HIV protease (Pepcleav)
- Format: biochemical
- MEASUREMENT CONTEXT: wild type HIV-1 protease expressed in E. coli, peptide substrate, pH 5.5; mean of at least two independent experiments; read-out: Pepcleav
// reported pIC50 per item
Please keep in mind that pIC50 is minus log10 of the molar concentration; only the number is needed.

Sample answers from the record:
[
  {
    "CHEMICAL SMILES": "N[C@H](C(=O)Nc1cncc(F)c1CC[C@@H]1CN[C@H](COC(=O)NCC(F)(F)F)CO1)[C@H](c1ccc(F)cc1)c1cccc(Cl)c1",
    "pIC50": 8.51
  },
  {
    "CHEMICAL SMILES": "COC(=O)N[C@H](C(=O)Nc1ccccc1CC[C@@H]1CN[C@H](CNS(=O)(=O)c2ccccc2)CO1)C(c1ccccc1)c1ccccc1",
    "pIC50": 7.59
  },
  {
    "CHEMICAL SMILES": "COC(=O)N[C@H](C(=O)Nc1ccccc1CC[C@@H]1CN[C@H](C(=O)NCCc2ccccc2)CO1)C(c1ccccc1)c1ccccc1",
    "pIC50": 8.00
  },
  {
    "CHEMICAL SMILES": "COC(=O)N[C@H](C(=O)Nc1cccc(F)c1CC[C@@H]1CN[C@H](COC(=O)NCC(F)(F)F)CO1)C(c1cccc(F)c1)c1cccc(F)c1",
    "pIC50": 8.52
  },
  {
    "CHEMICAL SMILES": "O=C(C[C@H](c1ccc(F)cc1)c1ccc(Br)cc1)Nc1cccc(F)c1CC[C@@H]1CN[C@H](COC(=O)NCC(F)(F)F)CO1",
    "pIC50": 8.21
  }
]

The record that follows has no pIC50 shown yet.
Fill in: wildtype HIV-1 protease (Human immunodeficiency virus type 1 group M subtype B) pIC50 for `COC(=O)N[C@H](C(=O)Nc1ccccc1CC[C@@H]1CN[C@H](COC(=O)NCc2cncs2)CO1)C(c1ccccc1)c1ccccc1` = 7.32

---

// reported pIC50 per item
- SYSTEM TESTED: wildtype HIV-1 protease (Human immunodeficiency virus type 1 group M subtype B, UniProt P04585)
- Construct: the wildtype HIV-1 protease (which was expressed in Escherichia coli); made in house; host or cells: Escherichia coli
- METHOD DESCRIPTION: Assay for inhibition of microbial expressed HIV protease (Pepcleav)
- Type: biochemical
- MEASUREMENT CONTEXT: wild type HIV-1 protease expressed in E. coli, peptide substrate, pH 5.5; mean of at least two independent experiments; read-out: Pepcleav
Please keep in mind that pIC50 is minus log10 of the molar concentration; only the number is needed.

Sample answers from the record:
[
  {
    "COMPOUND": "COC(=O)N[C@H](C(=O)Nc1ccccc1CC[C@@H]1CN[C@H](CNC(=O)c2[nH]c(=O)ccc2F)CO1)C(c1ccccc1)c1ccccc1",
    "pIC50": 7.18
  },
  {
    "COMPOUND": "N[C@H](C(=O)Nc1cccc(F)c1CC[C@@H]1CN[C@H](COC(=O)NCC(F)(F)F)CO1)[C@H](c1ccccc1)c1ccc(F)c(F)c1",
    "pIC50": 8.57
  },
  {
    "COMPOUND": "N[C@H](C(=O)Nc1cccc(F)c1CC[C@@H]1CN[C@H](COC(=O)NCC(F)(F)F)CO1)[C@@H](c1ccc(Cl)cc1)c1cccc(F)c1",
    "pIC50": 8.89
  }
]

Field pIC50 (entry `COC(=O)N[C@H](C(=O)Nc1ccccc1CC[C@@H]1CN[C@H](CNC(=O)c2cc(-c3ccccn3)[nH]n2)CO1)C(c1ccccc1)c1ccccc1` ) reads 7.14

Field pIC50 (entry `COC(=O)N[C@H](C(=O)Nc1ccccc1CC[C@@H]1CN[C@H](COC(=O)NCC(F)(F)F)CO1)C(c1ccccc1)c1ccccc1` ) reads 7.57

Field pIC50 (entry `COC(=O)N[C@H](C(=O)Nc1ccccc1CC[C@@H]1CN[C@H](C(=O)N2CCCC2)CO1)C(c1ccccc1)c1ccccc1` ) reads 7.10

Field pIC50 (entry `COC(=O)N[C@H](C(=O)Nc1ccccc1CC[C@@H]1CN[C@H](C(=O)NC(C)(C)C)CO1)C(c1ccccc1)c1ccccc1` ) reads 7.39

Field pIC50 (entry `C[C@H](Oc1c(F)cccc1NC(=O)[C@@H](N)C(c1ccc(F)cc1)c1ccc(F)cc1)[C@@H]1CN[C@H](COC(=O)NCc2ccc(F)cc2)CO1` ) reads 7.04

Field pIC50 (entry `N[C@H](C(=O)Nc1cncc(F)c1CC[C@@H]1CN[C@H](COC(=O)NC[C@H]2CCC(=O)N2)CO1)C(c1ccc(F)cc1)c1ccc(F)cc1` ) reads 8.12

Field pIC50 (entry `COC(=O)N[C@H](C(=O)Nc1ccccc1CC[C@@H]1CN[C@H](CNC(=O)Nc2ccccc2)CO1)C(c1ccccc1)c1ccccc1` ) reads 7.28

Field pIC50 (entry `COC(=O)N[C@H](C(=O)Nc1ccccc1CC[C@@H]1CN[C@H](C(=O)Nc2ccccc2)CO1)C(c1ccccc1)c1ccccc1` ) reads 9.10
